- Test target: PAI-1 (Homo sapiens)
- Protocol summary: PAI-1 inhibition in the S2251 chromogenic substrate assay (PAI functional assay)
- Format: biochemical
- Cond: 6.25 μm; Table 1, first part; unit assumed
Where a name gives a salt, the structure may show the parent alone.
Assay readout: INHIBITION OF PAI-1 (degree of inhibition) (%)

# Compound, Test target, Measured number
rows = [
    ("CC(C)(C)OC(=O)n1cc(/C=c2\\[nH]c(=O)/c(=C/c3c(Cl)cccc3Cl)[nH]c2=O)c2ccccc21 [Compound 1560]", "PAI-1 (Homo sapiens)", 13),
    ("CN(C)CCCOc1ccc(/C=c2\\[nH]c(=O)/c(=C/c3ccc(Cn4ccnc4)cc3)[nH]c2=O)cc1 [Compound 1975]", "PAI-1 (Homo sapiens)", 0),
    ("O=c1[nH]/c(=C\\c2c[nH]c3ccccc23)c(=O)[nH]/c1=C\\c1ccccc1 [Compound 1509]", "PAI-1 (Homo sapiens)", 1),
    ("CN(C)CCN(C)Cc1ccc(/C=c2\\[nH]c(=O)/c(=C/c3ccccc3)[nH]c2=O)cc1 [Compound 1982, hydrochloride]", "PAI-1 (Homo sapiens)", 1),
    ("O=c1[nH]/c(=C\\c2ccc(OCCn3ccnc3)cc2)c(=O)[nH]/c1=C\\c1ccccc1 [Compound 1910]", "PAI-1 (Homo sapiens)", 63),
]

(1) O=c1[nH]/c(=C\c2c[nH]cn2)c(=O)[nH]/c1=C\c1ccccc1 [Compound 1926]
(2) CN(C)c1ccc(C=C/C=c2\[nH]c(=O)/c(=C/c3ccccc3)[nH]c2=O)cc1 [Compound 1921]
Which is greater in INHIBITION OF PAI-1 (degree of inhibition), the first item 1 or the second item 2 ? Select an item and report its label.
2
(2: 16%, 1: 10%)

* * *

- Test target: PAI-1 (Homo sapiens, UniProt P05121)
- Sequence (P05121 24-402): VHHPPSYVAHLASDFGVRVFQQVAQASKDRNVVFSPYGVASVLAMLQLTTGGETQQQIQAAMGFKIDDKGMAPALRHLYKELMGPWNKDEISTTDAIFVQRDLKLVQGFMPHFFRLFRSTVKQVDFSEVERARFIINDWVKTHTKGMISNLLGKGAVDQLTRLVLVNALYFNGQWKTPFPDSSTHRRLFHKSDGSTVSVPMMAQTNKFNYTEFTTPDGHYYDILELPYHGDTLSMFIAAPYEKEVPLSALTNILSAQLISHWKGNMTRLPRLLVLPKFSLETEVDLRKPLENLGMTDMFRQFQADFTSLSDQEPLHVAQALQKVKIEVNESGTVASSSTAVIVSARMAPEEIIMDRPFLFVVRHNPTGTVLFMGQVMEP
- Protocol summary: PAI-1 inhibition in the S2251 chromogenic substrate assay (PAI functional assay)
- Assay type: biochemical
- Cond: 50 μM; Table 1, second part; read-out: INHIBITION OF PAI-1 (degree of inhibition)
Assay readout: inhibition at 50 µM (%)

(P) CN(C)CCCOc1ccc(/C=c2\[nH]c(=O)/c(=C/c3ccoc3)[nH]c2=O)cc1 [Compound 5052]
(Q) O=c1[nH]/c(=C\c2ccc(OCC(O)Cn3ccnc3)cc2)c(=O)[nH]/c1=C\c1ccccc1 (centres unmarked) [Compound 5057]
Two entries are listed, P and Q . Which one carries the higher inhibition at 50 µM? Please indicate the selected item by its label.
P
(P: 76%, Q: 29%)

* * *

- Test target: PAI-1 (Homo sapiens)
- Protocol summary: PAI-1 inhibition in the S2251 chromogenic substrate assay (PAI functional assay)
- Type: biochemical
- Cond: 25 μm; Table 1, first part; unit assumed
Assay readout: INHIBITION OF PAI-1 (degree of inhibition) (%)

// worked examples, INHIBITION OF PAI-1 (degree of inhibition) included
# Compound, Test target, Unit name, Measured number
records = [
    ("O=c1[nH]/c(=C\\c2ccc(OCCn3ccnc3)cc2)c(=O)[nH]/c1=C\\c1ccccc1 [Compound 1910]", "PAI-1 (Homo sapiens)", "%", 50),
    ("COc1ccc(/C=c2\\[nH]c(=O)/c(=C/c3ccc4c(c3)OCO4)[nH]c2=O)cc1 [Compound 1809]", "PAI-1 (Homo sapiens)", "%", 84),
    ("O=c1[nH]/c(=C\\C2CCCCC2)c(=O)[nH]/c1=C\\c1ccccc1 [Compound 1884]", "PAI-1 (Homo sapiens)", "%", 0),
    ("COc1ccc(/C=c2\\[nH]c(=O)/c(=C/c3ccoc3)[nH]c2=O)cc1 [Compound 1476]", "PAI-1 (Homo sapiens)", "%", 18),
    ("CN(C)CCCOc1ccc(/C=c2\\[nH]c(=O)/c(=C/c3ccc(-n4ccnc4)cc3)[nH]c2=O)cc1 [Compound 1976]", "PAI-1 (Homo sapiens)", "%", 0),
]

(I) O=c1[nH]/c(=C\c2c[nH]cn2)c(=O)[nH]/c1=C\c1ccccc1 [Compound 1926]
(II) O=c1[nH]/c(=C\c2c[nH]c3ccccc23)c(=O)[nH]/c1=C\c1ccccc1 [Compound 1509]
Pick the one with the larger INHIBITION OF PAI-1 (degree of inhibition): I vs II Give the chosen item's label as your response.
I

* * *

- Test target: PAI-1 (Homo sapiens, UniProt P05121)
- Protocol summary: PAI-1 inhibition in the S2251 chromogenic substrate assay (PAI functional assay)
- Type: biochemical
- Cond: 20 μM; Table 1, second part; read-out: INHIBITION OF PAI-1 (degree of inhibition)
Assay readout: inhibition at 20 µM (%)

# Molecule, Measured number
rows = [
    ("CN(C)CCCOc1ccc(/C=c2\\[nH]c(=O)/c(=C/c3cccnc3)[nH]c2=O)cc1", 4),
    ("CN(C)CCOCc1ccc(/C=c2\\[nH]c(=O)/c(=C/c3ccoc3)[nH]c2=O)cc1", 42),
]

(a) O=c1[nH]/c(=C\c2ccc(OCC(O)CN3CCN(CCO)CC3)cc2)c(=O)[nH]/c1=C\c1ccccc1 (stereo not drawn)
(b) CN(C)CCCOc1ccc(/C=c2\[nH]c(=O)/c(=C/c3ccco3)[nH]c2=O)cc1
For this pair, a and b , which shows a numerically higher inhibition at 20 µM? Write down the label of the entry you select.
a
(a: 1%, b: 0%)

(P) O=c1[nH]/c(=C\c2ccc(OCC(O)Cn3ccnc3)cc2)c(=O)[nH]/c1=C\c1ccccc1 (stereo not drawn)
(Q) CN(C)CCCOc1ccc(/C=c2\[nH]c(=O)/c(=C/c3ccncc3)[nH]c2=O)cc1
Between P and Q , which one shows the smaller inhibition at 20 µM number? Your answer should be the label of the entry you select.
Q
(Q: 8%, P: 37%)

* * *

- Test target: PAI-1 (Homo sapiens, UniProt P05121)
- Protocol summary: PAI-1 inhibition in the S2251 chromogenic substrate assay (PAI functional assay)
- Assay type: biochemical
- Cond: 100 μm; Table 1, first part; unit assumed
- Experimental: In this assay, a compound is incubated with PAI-1 prior to addition to the tPA assay system. Inhibition of PAI-1 results in the production of plasmin from plasminogen. […] Compounds of formula (A) were tested in a PAI chromogenic substrate assay. […] In turn, the plasmin cleaved the chromogenic substrate S2251 (Kabi-Vitrum) producing pNA (p-nitroaniline) which was detected scectrophotometrically at 405 nm.
Where a name gives a salt, the structure may show the parent alone.
Assay readout: INHIBITION OF PAI-1 (degree of inhibition) (%)

Some solved entries appear below for comparison.
# Molecule, Unit name, Measured number
records = [
    ("O=c1[nH]/c(=C\\C2CCCCC2)c(=O)[nH]/c1=C\\c1ccccc1 [Compound 1884]", "%", 40),
    ("COc1ccc(/C=c2\\[nH]c(=O)/c(=C/c3cn(S(C)(=O)=O)c4ccccc34)[nH]c2=O)cc1 [Compound 1693]", "%", 89),
]

(a) CN(C)c1ccc(C=C/C=c2\[nH]c(=O)/c(=C/c3ccccc3)[nH]c2=O)cc1 [Compound 1921]
(b) CC(=O)Nc1ccc(/C=c2\[nH]c(=O)/c(=C/c3ccc4c(c3)OCO4)[nH]c2=O)cc1 [Compound 1845]
I'm curious, which of these has a smaller INHIBITION OF PAI-1 (degree of inhibition) number: a or b ? Identify your selection by its label.
b
(b: 14%, a: 65%)

(P) CN(C)CCN(C)Cc1ccc(/C=c2\[nH]c(=O)/c(=C/c3ccccc3)[nH]c2=O)cc1 [Compound 1982, hydrochloride]
(Q) COc1ccc(/C=c2\[nH]c(=O)/c(=C/c3cn(C(=O)OC(C)(C)C)c4ccccc34)[nH]c2=O)cc1 [Compound 1506]
Select the item whose INHIBITION OF PAI-1 (degree of inhibition) value is smaller, choosing between P and Q . Your answer should be the label attached to the chosen record.
P
(P: 48%, Q: 75%)

* * *

- Test target: PAI-1 (Homo sapiens)
- Protocol summary: PAI-1 inhibition in the S2251 chromogenic substrate assay (PAI functional assay)
- Type: biochemical
- Cond: 20 μM; Table 1, second part; read-out: INHIBITION OF PAI-1 (degree of inhibition)
Assay readout: inhibition at 20 µM (%)

# Compound, Measured number
measured = [
    ("O=c1[nH]/c(=C\\c2ccc(OCCN3CCCC3)cc2)c(=O)[nH]/c1=C\\c1ccccc1 [Compound 5053]", 56),
]

(a) O=c1[nH]/c(=C\c2ccc(OCCN3CCOCC3)cc2)c(=O)[nH]/c1=C\c1ccccc1 [Compound 5054]
(b) CN(C)CC(=O)NCc1ccc(/C=c2\[nH]c(=O)/c(=C/c3ccsc3)[nH]c2=O)cc1 [Compound 5074]
Which of the two items, a and b , has the greater recorded inhibition at 20 µM? // return label of chosen record
a
